- Test system: NCI-H522 lung
- PROCEDURE SUMMARY: NCI tumour cell line growth inhibition, 48 h
The following molecules are listed with their measured log10 TGI values.
MEASURE NAME: log10 TGI (log10 of the value in µM)

{"CHEMICAL STRING": "CCOCC(=O)N[C@H]1CCc2cc(OC)c(OC)c(OC)c2-c2ccc(OC)c(=O)cc21", "MEASURE NAME": "log10 TGI", "VALUE OBSERVED": -1.11}
{"CHEMICAL STRING": "Nc1c(-c2ccc(Cl)cc2)[n+]([O-])c2ccccc2[n+]1[O-]", "MEASURE NAME": "log10 TGI", "VALUE OBSERVED": 1.93}
{"CHEMICAL STRING": "CCCn1c(=S)sc2c1nc(C)n1c(Nc3ccccc3)nnc21", "MEASURE NAME": "log10 TGI", "VALUE OBSERVED": 1.19}
{"CHEMICAL STRING": "O=C(O)/C=C(\\c1nc2ccc([N+](=O)[O-])cc2[nH]1)c1cc(Cl)ccc1O", "MEASURE NAME": "log10 TGI", "VALUE OBSERVED": 0.70}
{"CHEMICAL STRING": "COc1ccc(N2C(=O)/C(=C/c3ccc(N(CCC#N)CCC#N)cc3C)N=C2c2cc([N+](=O)[O-])ccc2Cl)cc1", "MEASURE NAME": "log10 TGI", "VALUE OBSERVED": 1.10}
{"CHEMICAL STRING": "Cc1ccc(-c2nc3nc(-c4ccccc4)nc(N4CCCNCC4)c3o2)cc1", "MEASURE NAME": "log10 TGI", "VALUE OBSERVED": 0.53}

----------
- Test system: UACC-62 melanoma
- PROCEDURE SUMMARY: NCI tumour cell line growth inhibition, 48 h

{"COMPOUND": "O=C1c2[nH]c3ccc(Br)cc3c2CCN1Cc1ccc(Cl)cc1", "TGI": "28.2 µM"}
{"COMPOUND": "Cc1cc2cc3c(cc2c(-c2ccc([N+](=O)[O-])cc2)n1)OCO3", "TGI": "67.2 µM"}
{"COMPOUND": "C=C(C[C@](O)(C(=O)/C=C/c1ccc(Cl)cc1)C(=O)OC)c1ccccc1", "TGI": "4.58 µM"}
{"COMPOUND": "O=C(O)c1nn(-c2ccccc2-c2n[nH]c(=O)[nH]c2=O)c(=O)[nH]c1=O", "TGI": "> 100 µM"}
{"COMPOUND": "O=C(O)c1ccccc1/C=N/NC1=NCCN1", "TGI": "> 100 µM"}
{"COMPOUND": "N#CSC1CCCCNC1=O (centres undefined)", "TGI": "29.1 µM"}
{"COMPOUND": "Nc1nc2c(nnn2C2CC(O)C(CO)O2)c(=O)[nH]1 (centres undefined)", "TGI": "36.2 µM"}
{"COMPOUND": "COc1ccc(-c2onc(N)c2-c2cc(OC)c3c(c2)OCO3)cc1", "TGI": "> 46.9 µM"}
{"COMPOUND": "C#CCNC(=O)c1cccc2c1cc(C)n2-c1nc2c(c(NCc3ccccc3)n1)CCCC2", "TGI": "0.0359 µM"}
{"COMPOUND": "O=C1c2ccccc2C(=O)c2c1cc(S(=O)(=O)O)c(O)c2O", "TGI": "> 100 µM"}
{"COMPOUND": "O=C1c2ccccc2C(=O)N1CCc1ncc[nH]1", "TGI": "> 100 µM"}
{"COMPOUND": "O=C(CC1C(=O)NN(c2ccc(Br)cc2)C1=O)c1cc(O)ccc1O (centres undefined)", "TGI": "27.7 µM"}
{"COMPOUND": "CCOC(=O)/C(=C\\c1ccccc1)C(=O)O", "TGI": "> 100 µM"}
{"COMPOUND": "Cc1ccc(C(=O)NC(C)C)cc1-c1ccc(C(=O)NCC2CC2)cc1", "TGI": "> 25 µM"}
{"COMPOUND": "Cc1cc(C)c2c(O)c(S(=O)(=O)c3ccc(Cl)cc3)c(=O)oc2c1", "TGI": "> 100 µM"}
{"COMPOUND": "N#CC12CNCC1CN=N2 (centres undefined)", "TGI": "> 100 µM"}
{"COMPOUND": "CCOC(=O)c1cc2c([nH]1)c(O)cc1c2ccn1Cc1ccccc1", "TGI": "28.8 µM"}
{"COMPOUND": "COC1(OC)CC2OC1C1N=NN(C(=O)OC(C)(C)C)C21 (centres undefined)", "TGI": "> 100 µM"}
{"COMPOUND": "Cc1cc2c(cc1Cl)SC1=NN(C)S(=O)N1S2(=O)=O (centres undefined)", "TGI": "> 100 µM"}
{"COMPOUND": "Cc1c(C)c(C)n(C2OC(CO)C(O)C(O)C2O)c(=S)c1C#N (centres undefined)", "TGI": "> 100 µM"}
{"COMPOUND": "OC1(c2ccccc2)C2CCN(CC2)C1CN1CCOCC1 (centres undefined)", "TGI": "> 100 µM"}
{"COMPOUND": "CC(C)(CO)N1CCN(C(=S)Nc2ccccc2)CC1", "TGI": "> 100 µM"}
{"COMPOUND": "NC(=S)N1N=C2c3ccccc3CC[C@@H]2[C@@H]1c1ccccc1", "TGI": "26.1 µM"}
{"COMPOUND": "COC(=O)c1cc(C)ccc1C1CN=NC12Cc1ccc(C)cc1C2=O (centres undefined)", "TGI": "> 100 µM"}

----------
- Test system: NCI-H23 lung
- PROCEDURE SUMMARY: NCI tumour cell line growth inhibition, 48 h

{"COMPOUND": "C/C(O)=C(\\N=O)C(=O)Nc1ccc(Cl)cc1Cl", "TGI": "> 100 µM"}
{"COMPOUND": "O=C(N/C(=C\\c1cccc([N+](=O)[O-])c1)c1nc2ccc([N+](=O)[O-])cc2[nH]1)c1ccccc1", "TGI": "> 100 µM"}
{"COMPOUND": "O=c1c2ccccc2[nH]c2c(Cl)cc(Cl)c(NC3CCCCC3)c12", "TGI": "36.8 µM"}
{"COMPOUND": "COc1cc(/C=C2/SC(c3ccccc3)N(c3ccccc3Cl)C2=O)cc(OC)c1OC (centres undefined)", "TGI": "81.7 µM"}
{"COMPOUND": "C[C@]12CC[C@H](OC(=O)Cc3ccc(N(CCCl)CCCl)cc3)CC1=CC[C@@H]1[C@@H]2CC[C@]2(C)C(=O)CC[C@@H]12", "TGI": "> 100 µM"}
{"COMPOUND": "COc1ccc(C[C@@H](CO)NC2=C(C#N)CCC2)cc1", "TGI": "> 100 µM"}
{"COMPOUND": "CCOC(=O)/C(C#N)=C/c1[nH]c(C(=O)OCc2ccccc2)c(C)c1C", "TGI": "> 100 µM"}
{"COMPOUND": "C=C1[C@H](OC(C)=O)[C@H]2[C@@H](OC(C)=O)[C@@H](C)C[C@]2(C)C(=O)[C@H](C)/C=C/C(C)(C)C(=O)[C@H](OCC(C)C)[C@H]1OC(C)=O", "TGI": "> 25 µM"}
{"COMPOUND": "O=C(O)CCC(=O)Nc1ccc2ccccc2c1", "TGI": "> 100 µM"}

----------
- Test system: HS 578T breast
- PROCEDURE SUMMARY: NCI tumour cell line growth inhibition, 48 h; in the data active = GI50 below about 0.43 µM; inactive = the rest
Outcome codes: active, inactive

{"COMPOUND": "CCCCCCCC(=O)OCC/C=C/C1OC1C1OC(=O)/C=C\\C=C\\c2nc(oc2C)/C=C(/C)CCC2OC2C1OC(=O)NC(C)=O (centres undefined)", "MEASUREMENT TARGET": "HS 578T breast", "GROUP": "active"}
{"COMPOUND": "Cc1ccc(C(=O)N(CCCN)C(c2oc3cc(Cl)ccc3c(=O)c2Cc2ccccc2)C(C)C)cc1 (centres undefined)", "MEASUREMENT TARGET": "HS 578T breast", "GROUP": "active"}
{"COMPOUND": "CCCCCCCCn1ccc2cc(NC(=O)Cn3cc(CN4CCCC4)nn3)ccc21", "MEASUREMENT TARGET": "HS 578T breast", "GROUP": "inactive"}
{"COMPOUND": "CC/C=C\\C[C@H](F)C/C=C1/C(=O)C=C[C@@H]1C/C=C\\CCCC(=O)O", "MEASUREMENT TARGET": "HS 578T breast", "GROUP": "inactive"}
{"COMPOUND": "C#CCNC(=O)c1cccc2c1cc(C)n2-c1nc2c(c(NCc3ccccc3)n1)CCCC2", "MEASUREMENT TARGET": "HS 578T breast", "GROUP": "active"}
{"COMPOUND": "COc1ccc2c(c1)C(=O)c1c-2n(CCCn2ccnc2)c(=O)c2cc([N+](=O)[O-])ccc12", "MEASUREMENT TARGET": "HS 578T breast", "GROUP": "inactive"}
{"COMPOUND": "COC(=O)Nc1nc2ccc(Oc3ccc(NC(=O)Nc4cc(C(F)(F)F)ccc4F)cc3)cc2s1", "MEASUREMENT TARGET": "HS 578T breast", "GROUP": "inactive"}
{"COMPOUND": "O=C(O)/C=C(\\c1nc2ccc([N+](=O)[O-])cc2[nH]1)c1cc(Cl)ccc1O", "MEASUREMENT TARGET": "HS 578T breast", "GROUP": "inactive"}
{"COMPOUND": "O=C(Nc1ccncc1)C(=O)c1cn(S(=O)(=O)c2cccc(F)c2)c2ccccc12", "MEASUREMENT TARGET": "HS 578T breast", "GROUP": "inactive"}
